- target of assay: gH/gL/UL128/UL130/UL131A pentamer complex (PC) of HCMV strain TR virus (human cytomegalovirus strain TR)
- experiment summary: cell-based or functional assay
experimental readout: IC50, neutralization of TR infection of HUVEC (ng/mL)
// return numeric value only (unit: ng/mL, not printed)

binder: 13B5 (antibody, V domains shown, also called NAb 13B5; 1365) VH: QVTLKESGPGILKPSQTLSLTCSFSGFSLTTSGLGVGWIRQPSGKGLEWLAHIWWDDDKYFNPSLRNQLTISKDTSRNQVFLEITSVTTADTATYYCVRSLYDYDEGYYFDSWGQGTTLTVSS VL: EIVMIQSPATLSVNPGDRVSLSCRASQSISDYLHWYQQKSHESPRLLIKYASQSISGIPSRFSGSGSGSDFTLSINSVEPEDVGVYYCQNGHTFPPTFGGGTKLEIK
readout number: 7.7

Just so you know, measured IC50, neutralization of TR infection of HUVEC for 54E11 (antibody, V domains shown, also called NAb 54E11) VH: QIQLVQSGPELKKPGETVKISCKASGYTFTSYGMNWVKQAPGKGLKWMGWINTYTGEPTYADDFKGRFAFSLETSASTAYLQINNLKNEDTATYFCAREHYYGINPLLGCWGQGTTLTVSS VL: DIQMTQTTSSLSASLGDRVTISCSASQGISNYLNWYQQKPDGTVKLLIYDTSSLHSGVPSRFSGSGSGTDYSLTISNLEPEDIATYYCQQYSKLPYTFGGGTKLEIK came out at 5.9
